read-out: Monocyte Chemoattractant Protein-1 (MCP1), CCL2 (gene 6347); assay: BSK_4H_MCP1: BioMAP Diversity Plus: 4H Assay for Monocyte Chemoattractant Protein-1 (MCP1) Biomarker Activity (AID 2283018); conditions: primary human endothelial cells (HUVEC); actives raise or lower the signal
Active and inactive are the calls of the source. How the source made its calls: active means hit-call score of the fitted dose curve at least 0.9, where 1 is the maximum; inactive means score below 0.9.
Outcomes: active, inactive

>>> class_label("CC(O)CN(CCN(CC(C)O)CC(C)O)CC(C)O (stereo not given)")
"inactive"
>>> class_label("CCn1nc(Cc2ccccc2)cc1C1CCN(C[C@H]2C[C@H](N(C)[C@@H](C(=O)O)C(C)C)C[C@@H]2c2cccc(F)c2)CC1")
"inactive"
>>> class_label("O=C(O)c1cc(N=Nc2ccc(S(=O)(=O)Nc3ccccn3)cc2)ccc1O")
"inactive"
>>> class_label("C1N2CN3CN1CN(C2)C3")
"inactive"
>>> class_label("COCCOCCOCCOC")
"inactive"
>>> class_label("CCOCCO")
"inactive"
>>> class_label("COc1ccc(-n2nc(C(F)F)cc2-c2ccc(S(C)=O)cc2)cc1 (stereo not given)")
"inactive"
>>> class_label("CCOC(=O)c1ccc(C2CCC(NC[C@H](O)COc3ccc(O)c(NS(C)(=O)=O)c3)CC2)cc1 (stereo not given in full)")
"inactive"
>>> class_label("CC(C)=CCCC(C)CCO (stereo not given)")
"inactive"
>>> class_label("Cc1ccc(O)cc1")
"inactive"
>>> class_label("CC(=O)OC[C@H]1O[C@@](COC(C)=O)(O[C@H]2O[C@H](COC(C)=O)[C@@H](OC(C)=O)[C@H](OC(C)=O)[C@H]2OC(C)=O)[C@@H](OC(C)=O)[C@@H]1OC(C)=O")
"inactive"
>>> class_label("C[C@](N)(Cc1ccc(O)c(O)c1)C(=O)O")
"inactive"
>>> class_label("CC[C@H]1CC[C@H](NCc2cc3c(cc2OC)[C@H]2C[C@H]2C(=O)N3C)[C@H](c2ccccc2)N1")
"inactive"
>>> class_label("COCCOc1cc2cc(C(=O)NC3CCN(C(C)C)CC3)n(CC(=O)Nc3ccc(Cl)cn3)c2cn1")
"inactive"
>>> class_label("CC(C)CCCCCCCOC(=O)CCCCC(=O)OCCCCCCCC(C)C")
"inactive"
>>> class_label("CCN(C(=O)c1cc(C)cc(OC[C@H](C)Nc2ccncc2)c1)C(C)C")
"inactive"
>>> class_label("Cc1c(-c2cccnc2)c2ccccc2n1CCCCC(=O)O")
"inactive"
>>> class_label("CCOC(=O)COc1ccc2c(c1)CC(NCC(O)c1cccc(Cl)c1)CC2 (stereo not given)")
"active"
>>> class_label("CC(=O)OCCC(C)C")
"inactive"
>>> class_label("CCCCC(CC)COC(=O)CCCCCCCCC(=O)OCC(CC)CCCC (stereo not given)")
"inactive"
>>> class_label("On1ccccc1=S")
"active"
>>> class_label("C=CCCCCCCCCC(=O)O")
"inactive"
>>> class_label("O=C1CCCCCN1")
"inactive"
>>> class_label("COC(=O)CC(=O)OC")
"inactive"
>>> class_label("CCCN(C1CCN(C(=O)C2CCNCC2)CC1)[C@@H]1CCc2ccc(OC)cc2C1")
"inactive"

====

read-out: CD38, CD38 (gene 952); assay: BSK_SAg_CD38: BioMAP Diversity Plus: SAg Assay for CD38 Biomarker Activity (AID 2283087); conditions: primary human HUVEC with PBMC; actives raise or lower the signal
Calls of active or inactive are those of the source. The calls were made as follows: active = hit-call score of the fitted dose curve at least 0.9, where 1 is the maximum; inactive = score below 0.9.
Classes used: active, inactive

>>> class_label("C1=CCCC=CCCC=CCC1")
"inactive"
>>> class_label("O=C(NS(=O)(=O)/C=C/c1ccccc1)c1ccc(F)cc1Cl")
"inactive"
>>> class_label("CCCC(=O)OCC")
"inactive"
>>> class_label("CNCc1ccc(NC(=O)c2c[nH]c3c2C(=O)CCC3)cc1")
"inactive"
>>> class_label("CCCCCCCCCCCCCCCO")
"active"
>>> class_label("CC[C@H](C)C(=O)O[C@H]1C[C@@H](C)C=C2C=C[C@H](C)[C@H](CC[C@@H]3C[C@@H](O)CC(=O)O3)[C@H]21")
"active"
>>> class_label("CNS(=O)(=O)c1cc(C(=O)N2CCC(CCN3C4CCC3CC(n3c(C)nc5ccccc53)C4)(c3cccc(F)c3)CC2)c(Cl)cc1F (stereo unspecified)")
"active"
>>> class_label("Cn1c(=O)cc(Oc2ccc(F)cc2F)c2cnc(NCC(C)(C)O)nc21")
"inactive"
>>> class_label("COc1ccc(-n2nc(C(F)F)cc2-c2ccc(S(C)=O)cc2)cc1 (stereo unspecified)")
"inactive"
>>> class_label("CC(C)CCCCCCCOC(=O)CCCCC(=O)OCCCCCCCC(C)C")
"inactive"
>>> class_label("COc1cccc(-c2ccc(/C=C\\CN3CCCCCC3)cc2Cl)c1")
"active"
